Assay: total protein half-life in vivo (active degradation + dilution); higher = more stable protein
Settings: wild type E. coli NCM3722; growth: C-lim chemostat; doubling time 12 h
Reported property: total protein half-life in vivo (h)
Answers are plain numbers, in h.

MPSLSKEAALVHEALVARGLETPLRPPVHEMDNETRKSLIAGHMTEIMQLLNLDLADDSLMETPHRIAKMYVDEIFSGLDYANFPKITLIENKMKVDEMVTVRDITLTSTCEHHFVTIDGKATVAYIPKDSVIGLSKINRIVQFFAQRPQVQERLTQQILIALQTLLGTNNVAVSIDAVHYCVKARGIRDATSATTTTSLGGLFKSSQNTRHEFLRAVRHHN [P0A6T5] ... 5.29
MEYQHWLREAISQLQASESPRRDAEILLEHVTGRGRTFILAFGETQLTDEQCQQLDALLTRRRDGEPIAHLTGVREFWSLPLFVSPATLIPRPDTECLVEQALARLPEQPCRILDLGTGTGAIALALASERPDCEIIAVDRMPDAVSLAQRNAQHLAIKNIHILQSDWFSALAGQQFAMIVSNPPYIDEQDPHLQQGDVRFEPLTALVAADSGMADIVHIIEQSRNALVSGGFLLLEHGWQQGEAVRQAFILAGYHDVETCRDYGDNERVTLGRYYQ [P0ACC1] ... 9.85
MSDNLPWKTWTPDDLAPPQAEFVPIVEPEETIIEEAEPSLEQQLAQLQMQAHEQGYQAGIAEGRQQGHKQGYQEGLAQGLEQGLAEAKSQQAPIHARMQQLVSEFQTTLDALDSVIASRLMQMALEAARQVIGQTPTVDNSALIKQIQQLLQQEPLFSGKPQLRVHPDDLQRVDDMLGATLSLHGWRLRGDPTLHPGGCKVSADEGDLDASVATRWQELCRLAAPGVV ... 5.33
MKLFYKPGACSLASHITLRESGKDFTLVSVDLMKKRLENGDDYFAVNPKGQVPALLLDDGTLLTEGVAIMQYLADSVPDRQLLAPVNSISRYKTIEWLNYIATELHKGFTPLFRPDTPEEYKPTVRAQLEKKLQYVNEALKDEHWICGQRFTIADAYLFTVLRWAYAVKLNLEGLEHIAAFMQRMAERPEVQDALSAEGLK [P0A9D2] ... 11.6
MDKIHAMQLFIKVAELESFSRAADFFALPKGSVSRQIQALEHQLGTQLLQRTTRRVKLTPEGMTYYQRAKDVLSNLSELDGLFQQDATSISGKLRIDIPPGIAKSLLLPRLSEFLYLHPGIELELSSHDRPVDILHDGFDCVIRTGALPEDGVIARPLGKLTMVNCASPHYLTRFGYPQSPDDLTSHAIVRYTPHLGVHPLGFEVASVNGVQWFKSGGMLTVNSSENYLTAGLAGLGIIQIPRIAVREALRAGRLIEVLPGYRAEPLSLSLVYPQRRELSRRVNLFMQWLAGVMKEYLD ... 7.24
MSKCSADETPVCCCMDVGTIMDNSDCTASYSRVFANRAEAEQTLAALTEKARSVESEPCKITPTFTEESDGVRLDIDFTFACEAEMLIFQLGLR [P0AD33] ... 8.27

Attention now shifts to the item below.
Inquiry: Suppose we examine the sequence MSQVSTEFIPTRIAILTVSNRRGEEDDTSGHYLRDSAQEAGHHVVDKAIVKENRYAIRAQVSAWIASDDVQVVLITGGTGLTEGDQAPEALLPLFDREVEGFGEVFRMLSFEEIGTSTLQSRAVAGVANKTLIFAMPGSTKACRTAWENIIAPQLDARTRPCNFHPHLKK [P0AEZ9] ; what total protein half-life in vivo value has been reported?
Reply text: 10.3

---

Experiment: total protein half-life in vivo (active degradation + dilution); higher = more stable protein
Conditions: wild type E. coli NCM3722; growth: C-lim chemostat; doubling time 6 h
Reported property: total protein half-life in vivo (h)
Numbers only, in h.

MTQPVLDIQQLHLSFPGFNGDVHALNNVSLQINRGEIVGLVGESGSGKSVTAMLIMRLLPTGSYCVHRGQISLLGEDVLNAREKQLRQWRGARVAMIFQEPMTALNPTRRIGLQMMDVIRHHQPISRREARAKAIDLLEEMQIPDAVEVMSRYPFELSGGMRQRVMIALAFSCEPQLIIADEPTTALDVTVQLQVLRLLKHKARASGTAVLFISHDMAVVSQLCDSVYVMYAGSVIESGVTADVIHHPRHPYTIGLLQCAPEHGVPRQLLPAIPGTVPNLTHLPDGCAFRDRCYAAGAQCENVPALTACGDNNQRCACWYPQQEVISV ... 3.41
MVKLAFPRELRLLTPSQFTFVFQQPQRAGTPQITILGRLNSLGHPRIGLTVAKKNVRRAHERNRIKRLTRESFRLRQHELPAMDFVVVAKKGVADLDNRALSEALEKLWRRHCRLARGS [P0A7Y8] ... 4.82

Inquiry: Request the reported total protein half-life in vivo associated with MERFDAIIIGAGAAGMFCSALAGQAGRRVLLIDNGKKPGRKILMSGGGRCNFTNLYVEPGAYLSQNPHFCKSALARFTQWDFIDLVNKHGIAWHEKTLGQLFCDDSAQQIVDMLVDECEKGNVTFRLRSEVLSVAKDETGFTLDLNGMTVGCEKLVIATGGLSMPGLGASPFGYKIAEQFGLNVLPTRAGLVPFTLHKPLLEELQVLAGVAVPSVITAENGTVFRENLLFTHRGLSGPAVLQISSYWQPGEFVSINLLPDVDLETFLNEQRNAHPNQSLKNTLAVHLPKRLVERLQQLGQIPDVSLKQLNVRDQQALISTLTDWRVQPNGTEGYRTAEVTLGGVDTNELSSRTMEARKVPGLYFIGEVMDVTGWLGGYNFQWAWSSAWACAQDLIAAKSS
Reply text: 6.42

---

Experiment: total protein half-life in vivo (active degradation + dilution); higher = more stable protein
Conditions: wild type E. coli NCM3722; growth: N-lim chemostat; doubling time 12 h
Kindly state total protein half-life in vivo for each of the entries shown.
Answers are plain numbers, in h.

Would you please look over these solved cases?
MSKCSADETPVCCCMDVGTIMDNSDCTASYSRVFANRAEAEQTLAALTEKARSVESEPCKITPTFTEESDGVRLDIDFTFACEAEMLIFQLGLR [P0AD33] ... 3.61
MDNRGEFLNNVAQALGRPLRLEPQAEDAPLNNYANERLTQLNQQQRCDAFIQFASDVMLTRCELTSEAKAAEAAIRLCKELGDQSVVISGDTRLEELGISERLQQECNAVVWDPAKGAENISQAEQAKVGVVYAEYGLTESGGVVLFSAAERGRSLSLLPEYSLFILRKSTILPRVAQLAEKLHQKAQAGERMPSCINIISGPSSTADIELIKVVGVHGPVKAVYLIIEDC ... 2.49
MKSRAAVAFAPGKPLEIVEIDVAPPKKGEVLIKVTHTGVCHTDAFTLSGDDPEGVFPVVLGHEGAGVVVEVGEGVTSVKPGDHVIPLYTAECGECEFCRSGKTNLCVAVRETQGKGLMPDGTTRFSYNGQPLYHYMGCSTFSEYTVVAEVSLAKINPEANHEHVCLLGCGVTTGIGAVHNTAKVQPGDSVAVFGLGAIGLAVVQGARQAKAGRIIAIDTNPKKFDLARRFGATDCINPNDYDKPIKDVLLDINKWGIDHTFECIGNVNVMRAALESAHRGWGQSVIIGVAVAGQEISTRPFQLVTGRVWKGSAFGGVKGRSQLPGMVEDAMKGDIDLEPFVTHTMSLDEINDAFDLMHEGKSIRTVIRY ... 6.82
MKTIHDIRRSNARKLRDGVGGNSSFATMIDREPTQTSRFMGDGATKNIGDSMARHIEKCFDLPVGWLDQEHQTTNITKKPDVSITNKQITLVPVISWVQAGAWKEVGYSEVDLSTAETYPCPVPCGEMTYILRVIGDSMIDEYRPGDMIFVDPEVPACHGDDVIALMHDTGETTFKRLIEDGTQRYLKALNPNWPEPYIKINGNCSIIGTVIFSGKPRRYKIKA ... 7.94
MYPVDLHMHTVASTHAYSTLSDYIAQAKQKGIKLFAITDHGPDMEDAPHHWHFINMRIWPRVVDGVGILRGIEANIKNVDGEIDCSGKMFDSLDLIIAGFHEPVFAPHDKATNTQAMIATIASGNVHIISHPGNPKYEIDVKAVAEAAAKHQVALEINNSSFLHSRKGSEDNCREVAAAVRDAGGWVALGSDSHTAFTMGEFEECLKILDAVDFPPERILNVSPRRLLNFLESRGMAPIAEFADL ... 6.47
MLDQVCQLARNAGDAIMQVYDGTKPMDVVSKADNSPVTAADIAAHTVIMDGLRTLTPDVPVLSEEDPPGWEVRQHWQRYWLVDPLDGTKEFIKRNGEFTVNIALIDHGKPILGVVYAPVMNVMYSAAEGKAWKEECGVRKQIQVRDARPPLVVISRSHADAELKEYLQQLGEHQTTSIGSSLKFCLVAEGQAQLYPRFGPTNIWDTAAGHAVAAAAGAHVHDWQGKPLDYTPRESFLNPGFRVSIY ... 7.93

Field: next sequence
Inquiry: Quick one: total protein half-life in vivo of MPLHNLTRFPRLEFIGAPTPLEYLPRFSDYLGREIFIKRDDVTPMAMGGNKLRKLEFLAADALREGADTLITAGAIQSNHVRQTAAVAAKLGLHCVALLENPIGTTAENYLTNGNRLLLDLFNTQIEMCDALTDPNAQLEELATRVEAQGFRPYVIPVGGSNALGALGYVESALEIAQQCEGAVNISSVVVASGSAGTHAGLAVGLEHLMPESELIGVTVSRSVADQLPKVVNLQQAIAKELELTASAEILLWDDYFAPGYGVPNDEGMEAVKLLARLEGILLDPVYTGKAMAGLIDGISQKRFKDEGPILFIHTGGAPALFAYHPHV ?
Reply text: 11.6
